// data source = patent US20230029066A1

assayOverview: Solubility of crystal forms in different environments
Format: physicochemical
testParameters: pH 4.5 acetic acid-sodium acetate solution, pH 4.5, aqueous buffer, thermodynamic from solid, pH 4.5 acetic acid-sodium acetate solution; Ultrasonic; read-out: solubility
readoutName: solubility (µg/mL)
Lab book: enter the figure in µg/mL, no units written.

Lookup: Dear colleague, I am looking for the recorded solubility of the following compound: COc1ncc(-c2ccc3ncc(C#N)c(N4CCOC[C@H]4C)c3c2)cc1NS(C)(=O)=O [crystal form I]
Found: 1.56

---

assayOverview: Solubility of crystal forms in different environments
Assay type: physicochemical
testParameters: pH 1.2 hydrochloric acid solution, 75 °C, pH 1.2, simulated gastric fluid, thermodynamic from solid, pH 1.2 hydrochloric acid solution; 75° C.; read-out: solubility
readoutName: solubility

Lookup: Dear colleague, I am looking for the recorded solubility of the following compound: COc1ncc(-c2ccc3ncc(C#N)c(N4CCOC[C@H]4C)c3c2)cc1NS(C)(=O)=O [crystal form I]
Found: 868 µg/mL
